study.system: T1, mouse serum albumin (mouse, UniProt P07724 25-608)
T1 construct: bought protein, amine-coupled to a CM5 chip; also called Mouse SA
assay.name: SPR (Biacore 8K), albumin immobilised, 25 C, 1:1 kinetics
Measured pKd by item
FYI, pKd means -log10 of a concentration in mol per litre.

[[record]]
binder = "INS Analog 29 (other, single-chain insulin B-L2-A-L1-VHH fusion; also called Ex. 29) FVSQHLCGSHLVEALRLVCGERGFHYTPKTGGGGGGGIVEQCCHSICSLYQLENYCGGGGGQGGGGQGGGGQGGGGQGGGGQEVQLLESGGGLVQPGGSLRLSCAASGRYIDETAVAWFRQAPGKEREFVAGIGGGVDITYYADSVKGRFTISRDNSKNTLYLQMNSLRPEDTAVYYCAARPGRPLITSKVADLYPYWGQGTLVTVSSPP"
measured_result = 7.32

[[record]]
binder = "INS Analog 25 (other, single-chain insulin B-L2-A-L1-VHH fusion; also called Ex. 25) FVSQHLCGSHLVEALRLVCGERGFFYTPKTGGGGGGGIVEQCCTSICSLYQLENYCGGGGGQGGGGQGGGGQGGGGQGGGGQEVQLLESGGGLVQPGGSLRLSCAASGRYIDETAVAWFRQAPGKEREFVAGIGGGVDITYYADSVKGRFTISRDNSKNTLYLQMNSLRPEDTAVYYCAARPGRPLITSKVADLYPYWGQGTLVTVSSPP"
measured_result = 7.38


Lab note: INS Analog 27 (other, single-chain insulin B-L2-A-L1-VHH fusion; also called Ex. 27) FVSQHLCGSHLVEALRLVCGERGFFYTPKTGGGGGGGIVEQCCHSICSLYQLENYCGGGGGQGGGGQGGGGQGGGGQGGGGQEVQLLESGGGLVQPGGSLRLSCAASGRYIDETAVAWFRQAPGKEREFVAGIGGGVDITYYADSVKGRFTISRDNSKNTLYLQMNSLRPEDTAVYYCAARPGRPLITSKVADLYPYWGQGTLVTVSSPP gave pKd of 7.35
